All figures here come from paper PMC2810320.

Kindly supply the reported ΔG ΔGexp. values for the records listed here.
# experimental system: porcine bc1 complex (Sus scrofa, UniProt P24964)
# Sequence (P24964 whole entry, one chain of several): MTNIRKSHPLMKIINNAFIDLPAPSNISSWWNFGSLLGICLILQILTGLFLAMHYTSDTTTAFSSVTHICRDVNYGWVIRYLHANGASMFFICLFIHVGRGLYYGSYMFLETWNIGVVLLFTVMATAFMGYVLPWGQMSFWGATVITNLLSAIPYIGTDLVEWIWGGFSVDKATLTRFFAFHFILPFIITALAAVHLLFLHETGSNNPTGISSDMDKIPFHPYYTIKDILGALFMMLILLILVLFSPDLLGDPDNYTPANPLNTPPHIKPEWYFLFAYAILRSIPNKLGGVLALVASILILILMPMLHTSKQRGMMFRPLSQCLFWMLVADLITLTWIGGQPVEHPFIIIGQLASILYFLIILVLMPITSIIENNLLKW
# test details: Succinate-cytochrome c reductase
# Format: biochemical
# test parameters: ΔGexp. = −RTlnKi
Give bare numbers, in kcal/mol.

CO/C=C(/C(=O)OC)c1ccccc1COc1cc(-c2cc(C)ccc2OC)nn1C = -10.52

// input: 3 compounds below; output: ΔG ΔGexp. for each
1. CO/C=C(/C(=O)OC)c1ccccc1COc1cc(-c2cc(C)ccc2O)nn1C
2. CO/C=C(/C(=O)OC)c1ccccc1COc1cc(-c2ccccc2OCc2ccccc2)nn1C
3. COC(=O)N(OC)c1ccccc1COc1ccn(-c2ccc(Cl)cc2)n1 [PY, pyraclostrobin, reference compound]

1: -11.62; 2: -10.79; 3: -11.59

Would you mind giving ΔG ΔGexp. for every compound in the list below?
1. CO/N=C(/C(=O)OC)c1ccccc1COc1ccccc1C [KM, kresoxim-methyl, reference compound]
2. CO/C=C(/C(=O)OC)c1ccccc1COc1cc(-c2ccccc2OC(=O)c2ccc(F)cc2)nn1C
3. CO/C=C(/C(=O)OC)c1ccccc1Oc1cc(Oc2ccccc2C#N)ncn1 [AZ, azoxystrobin, reference compound]
4. CO/C=C(/C(=O)OC)c1ccccc1COc1cc(-c2ccccc2OC)nn1C

1. -9.28
2. -9.56
3. -8.92
4. -10.29

----------
# experimental system: porcine bc1 complex (Sus scrofa)
# test details: Ubiquinol-cytochrome c reductase
property label: Ki
In your response, the unit should come after the numeric value.

Measured on porcine bc1 complex (Sus scrofa), CO/C=C(/C(=O)OC)c1ccccc1COc1cc(-c2cc(Cl)ccc2O)nn1C has a documented Ki of 2.6 nM

----------
Field: ΔG ΔGexp.. Provide a value for each of the molecules that follow.
# experimental system: porcine bc1 complex (Sus scrofa, UniProt P24964)
# test details: Succinate-cytochrome c reductase
# Format: biochemical
# test parameters: ΔGexp. = −RTlnKi
Give bare numbers, in kcal/mol.

// known answers, use as guide
CO/C=C(/C(=O)OC)c1ccccc1COc1cc(-c2ccccc2O)nn1C = -12.19
CO/C=C(/C(=O)OC)c1ccccc1COc1cc(-c2cc(Cl)ccc2O)nn1C = -12.63

Proceeding to the next molecule to report its ΔG ΔGexp..
Param item: CO/N=C(/C(=O)OC)c1ccccc1COc1cc(-c2ccccc2O)nn1C ; param system: porcine bc1 complex (Sus scrofa, UniProt P24964); output ΔG ΔGexp.: -11.50
